Experiment: Toxicity liver stage against HepG2, at 10uM
Type: cell-based
Design: test concentration 10 uM, cell line HepG2-A16-CD81EGFP
Details: human, HepG2-A16-CD81EGFP cells; read-out: INHIBITION
Parameter measured: cytotoxicity at 10 µM (%)

CC(C)N1CCO[C@H]2CN(S(=O)(=O)c3ccc(C#N)cc3)C[C@H]21 = 7.55
Cc1cc(C(F)(F)F)nc(C2CCCN2S(C)(=O)=O)n1 (stereo not drawn) = 2.68
Cn1cnnc1SCC(=O)NC1CC(=O)N(CCc2cccc(Cl)c2)C1 (stereo not drawn) = 2.3
Cc1noc(CNc2ccccc2CC(=O)N(C)C)n1 = 2.69
CC(C)n1ccc(CN2CCOC(CNc3cccnn3)C2)n1 (stereo not drawn) = -16.6
CCn1c(C)nnc1SCCNC(=O)Cn1cnc2ccccc2c1=O = 8.28
COc1ccc(CN2CCO[C@H]3CN(C4CCCC4)CC[C@H]3C2=O)cc1 = -138
CC(=O)Nc1ccc(C(=O)Nc2cnc3n2CCCC3)c(C)c1 = -1.14
COCC1CN(C(=O)Nc2cc(Cl)ccc2F)CCO1 (stereo not drawn) = 10.7
NC(=O)C1CCN(C(=O)c2cc(-n3cnnn3)ccc2Cl)CC1 = 12.4
O=C(Cc1c(F)cccc1F)N1CCN(CC(=O)N2CCCC2)CC1 = 4.57
CCN(Cc1nc(C2CC2)no1)Cc1ccc(C#N)cc1F = 3.82
COc1cc(NCc2c(C)noc2C)c(C(=O)N(C)C)cc1OC = 6.85
CC(C)c1cc(NC2CCN(C(=O)N3CCCC3)CC2)ncn1 = 10.2
O=C(CO)N1CCC(F)(F)C2(CCN(c3ccccc3)C2)C1 (stereo not drawn) = 13.8
CCN1CC2(CCC1=O)CCN(Cc1cccc(C#N)c1)CC2 = -1.1
CC(C)NC(=O)CCNC(=O)Nc1ccc(-n2cncn2)c(F)c1 = 0.485
CN(CC1CCCCO1)C(=O)c1ccnc(OC2CCC2)c1 (stereo not drawn) = -7.63
COCc1ccccc1C(=O)NS(=O)(=O)c1ccc2c(c1)CCC(=O)N2 = -1.74
Cc1ncoc1C(=O)N1CCc2[nH]nc(-c3ccc4c(c3)OCO4)c2C1 = -143
O=C1CC2(CCNCC2)C(=O)N1c1cccc(F)c1 = 1.7
CCC[C@@H]1CN(C(=O)c2ccccc2-c2ccccc2)C[C@H]1N(C)C = 2.16
O=C(c1ccncc1)N1CCCn2nnc(COCCO)c2C1 = 10.5
COC[C@@]12CC[C@@H](N3CCOCC3)C[C@H]1CCN(c1cnccn1)C2 = 4.76
Cc1c(Cl)c(CN2CCCC2Cn2cncn2)nc2ccccc12 (stereo not drawn) = -13.3
Cc1cccc(CN2C(=O)CCC23CCNCC3)n1 = 0.758
O=c1[nH]c(COc2cccc(F)c2)nc2c1CCNC2 = 10.1
Cc1ccsc1-c1nccn1CCS(C)(=O)=O = 3.03
COC[C@@]12CCO[C@@H]1CCN(C(=O)Cc1cccc(F)c1)C2 = -8.95
CN(C)c1cccc(C(=O)NCC(O)c2cccs2)c1 (stereo not drawn) = 16.6
Cn1cnc2c1CCN(CCCOc1ccc(S(C)(=O)=O)cc1)C2 = 4.94
Cc1noc(C)c1C(=O)N1CCOC2(COCCN(C(C)C)C2)C1 (stereo not drawn) = 2.71
CCc1c(C)sc2nc3n(CCN4CCCCC4)nc(SC)n3c(=O)c12 = 2.68
